species: Cavia porcellus; assay: Evaluated for agonist activity as percent inhibition in electrically evoked twitch height in Guinea pig ileum (GPI) at 1 uM concentration of compound; format: functional
attributeMeasured: inhibition at 1 µM (%)
// note: answer is a bare numeric in %

Prompt line: Bench note: what inhibition at 1 µM did C[C@H](c1ccccc1)[C@H](N)C(=O)N[C@H]1CSSC(C)(C)[C@@H](C(=O)N[C@H](C(N)=O)[C@@H](C)O)NC(=O)[C@H]([C@@H](C)O)NC(=O)[C@H](CCCN=C(N)N)NC(=O)[C@@H](Cc2c[nH]c3ccccc23)NC(=O)[C@H](Cc2ccc(O)cc2)NC1=O show?
Response line: 13

Prompt line: Bench note: what inhibition at 1 µM did C[C@@H](O)[C@H](NC(=O)[C@H]1NC(=O)[C@H]([C@@H](C)O)NC(=O)[C@H](CCCN=C(N)N)NC(=O)[C@@H](Cc2c[nH]c3ccccc23)NC(=O)[C@H](Cc2ccc(O)cc2)NC(=O)[C@@H](NC(=O)[C@H](N)[C@@H](C)c2ccccc2)CSSC1(C)C)C(N)=O show?
Response line: 0

Prompt line: Bench note: what inhibition at 1 µM did C[C@@H](O)[C@H](NC(=O)[C@H]1NC(=O)[C@H]([C@@H](C)O)NC(=O)[C@H](CCCNC(=N)N)NC(=O)[C@@H](Cc2c[nH]c3ccccc23)NC(=O)[C@H](Cc2ccc(O)cc2)NC(=O)[C@@H](NC(=O)[C@H](N)Cc2ccccc2)CSSC1(C)C)C(N)=O show?
Response line: 4

Prompt line: Bench note: what inhibition at 1 µM did C[C@@H](O)[C@H](NC(=O)[C@H]1NC(=O)[C@H]([C@@H](C)O)NC(=O)[C@H](CCCN=C(N)N)NC(=O)[C@@H](Cc2c[nH]c3ccccc23)NC(=O)[C@H](Cc2ccc(O)cc2)NC(=O)[C@@H](NC(=O)[C@@H](N)[C@@H](C)c2c[nH]c3ccccc23)CSSC1(C)C)C(N)=O show?
Response line: 0
